- system.under.test: UniProt Q16552
- assay.summary: Inhibition of IL-17A induced IL-6 release from dermal fibroblast cell line (HDF cell line assay)
- condition.notes: human dermal fibroblasts stimulated with IL-17A (50 pM) + TNF-α (25 pM); IL-6 measured by HTRF; pIC50 = -log10[IC50], IC50 molar
This section presents compounds with their documented log10 of IC50 values.
Response schema: value (number) is log10 of IC50 in units of nM.

Consider the reported log10 of IC50 for these compounds:
QUERY: Which log10 of IC50 reading was recorded for the compound Cc1nonc1C(=O)N[C@H](c1cn2ncc([C@H]3C[C@@](O)(C(F)F)CCN3C(=O)C34CC(F)(C3)C4)nc2n1)C1CCC(F)(F)CC1 (single isomer, unassigned) [Example 29] ?
RESULT: 2.80

QUERY: Reported log10 of IC50 for Cc1nonc1C(=O)N[C@H](c1cn2ncc([C@@H]3COCCN3C(=O)[C@@H]3CCC(F)(F)CO3)nc2n1)[C@H]1CC[C@H](C(F)(F)F)CC1 (single isomer, unassigned) [Example 24] : what is it?
RESULT: 1.00

QUERY: // lookup log10 of IC50 for Cc1nonc1C(=O)N[C@H](c1cn2ncc([C@@H]3C[C@@](C)(O)CCN3C(=O)[C@@H]3CCC(F)(F)CO3)nc2n1)C1CCC(F)(F)CC1 (single isomer, unassigned) [Example 38]
RESULT: 2.10

QUERY: Consider the compound CC(C)n1ncnc1C(=O)N[C@H](c1cn2ncc([C@@H]3C[C@](C)(O)CCN3C(=O)[C@@H]3CCC(F)(F)CO3)nc2n1)C1CCC(F)(F)CC1 (single isomer, unassigned) [Example 52] and give its measured log10 of IC50.
RESULT: 0.90

QUERY: Entry Cc1nonc1C(=O)N[C@H](c1cn2ncc([C@@H]3C[C@@](O)(C(F)F)CCN3C(=O)C34CC(F)(C3)C4)nc2n1)C1CCC(F)(F)CC1 (single isomer, unassigned) [Example 26] has what log10 of IC50?
RESULT: 1.00

QUERY: Which log10 of IC50 reading was recorded for the compound Cc1nonc1C(=O)N[C@H](c1cn2ncc([C@@H]3C[C@@](O)(C(F)(F)F)CCN3C(=O)C34CC(F)(C3)C4)nc2n1)C1CCC(F)(F)CC1 (single isomer, unassigned) [Example 9] ?
RESULT: 0.80

QUERY: // lookup log10 of IC50 for Cc1nonc1C(=O)N[C@H](c1cn2ncc([C@@H]3C[C@](C)(O)CCN3C(=O)C34CC(F)(C3)C4)nc2n1)C1CCC(F)(F)CC1 (single isomer, unassigned) [Example 36]
RESULT: 1.10

QUERY: # query: log10 of IC50 of entry Cc1nonc1C(=O)N[C@H](c1cn2ncc([C@H]3C[C@](O)(C(F)F)CCN3C(=O)C34CC(F)(C3)C4)nc2n1)C1CCC(F)(F)CC1 (single isomer, unassigned) [Example 27]
RESULT: 2.40

More entries:
QUERY: log10 of IC50 for Cc1nonc1C(=O)N[C@H](c1cn2ncc([C@@H]3COCCN3C(=O)[C@@H]3CCC(F)(F)CO3)nc2n1)C1CCC(F)(F)CC1 (single isomer, unassigned) [Example 7] ?
RESULT: 0.80

QUERY: What value of log10 of IC50 has been recorded for this entry: Cc1nonc1C(=O)N[C@H](c1cn2ncc([C@H]3COCCN3C(=O)C34CC(F)(C3)C4)nc2n1)C1CCC(F)(F)CC1 (single isomer, unassigned) [Example 4]
RESULT: 2.80

----------
- system.under.test: IL-17A (Homo sapiens)
- Sequence (Q16552 24-155): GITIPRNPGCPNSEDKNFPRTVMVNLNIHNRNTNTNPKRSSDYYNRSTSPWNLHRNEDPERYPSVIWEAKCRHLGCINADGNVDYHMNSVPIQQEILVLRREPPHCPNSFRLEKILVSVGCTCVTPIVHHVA
- assay.summary: Inhibition of IL-17A induced IL-6 release from dermal fibroblast cell line (HDF cell line assay)
- condition.notes: human dermal fibroblasts stimulated with IL-17A (50 pM) + TNF-α (25 pM); IL-6 measured by HTRF; pIC50 = -log10[IC50], IC50 molar
measured.attribute: IC50
Quick note: number first, unit second.

# example entries with known answers
QUERY: What value of IC50 on IL-17A (Homo sapiens) does Cc1nonc1C(=O)N[C@H](c1cn2ncc(C3(C(=O)N4CC(F)(F)C(F)(F)C4)CCN(C4COC4)CC3)nc2n1)C1CCC(F)(F)CC1 have?
RESULT: 7.94 nM

QUERY: API: value(readout=IC50, system=IL-17A (Homo sapiens)) for record CC(C)n1ncnc1C(=O)N[C@H](c1cn2ncc([C@H]3C[C@@H](O)CCN3C(=O)[C@@H]3CCC(F)(F)CO3)nc2n1)C1CCC(F)(F)CC1 (single isomer, unassigned) [Example 50]
RESULT: 12.6 nM

Okay, next one:
QUERY: Find the measured IC50: item CC(C)n1ncnc1C(=O)N[C@H](c1cn2ncc([C@@H]3C[C@@](O)(C(F)F)CCN3C(=O)[C@@H]3CCC(F)(F)CO3)nc2n1)C1CCC(F)(F)CC1 (single isomer, unassigned) [Example 49] , target or system IL-17A (Homo sapiens).
RESULT: 631 nM

----------
- system.under.test: IL-17A (Homo sapiens, UniProt Q16552)
- assay.summary: Inhibition of IL-17A induced IL-6 release from dermal fibroblast cell line (HDF cell line assay)
- Assay type: cell-based
- condition.notes: human dermal fibroblasts stimulated with IL-17A (50 pM) + TNF-α (25 pM); IL-6 measured by HTRF; pIC50 = -log10[IC50], IC50 molar
Examples of molecules with documented pIC50 follow.
Interpret pIC50 as the negative base-10 log of the concentration measured in mol/L.

// solved cases for pIC50 follow
QUERY: Look up pIC50 for this molecule: Cc1nonc1C(=O)N[C@H](c1cn2ncc(C3(C(=O)NCC(C)(F)F)CCOCC3)nc2n1)C1CCC(F)(F)CC1 [Example 17]
RESULT: 7.90

QUERY: Reported pIC50 for Cc1nonc1C(=O)N[C@H](c1cn2ncc([C@@H]3C[C@H](O)CCN3C(=O)[C@@H]3CCC(F)(F)CO3)nc2n1)C1CCC(F)(F)CC1 (single isomer, unassigned) [Example 42] : what is it?
RESULT: 7.90

Please turn your attention to the following entry.
QUERY: Can you look up the measured pIC50 of Cc1nonc1C(=O)N[C@H](c1cn2ncc([C@H]3C[C@H](O)CCN3C(=O)[C@@H]3CCC(F)(F)CO3)nc2n1)C1CCC(F)(F)CC1 (single isomer, unassigned) [Example 45] for me?
RESULT: 8.40

----------
IC50: recorded values
- system.under.test: IL-17A (Homo sapiens, UniProt Q16552)
- assay.summary: Inhibition of IL-17A induced IL-6 release from dermal fibroblast cell line (HDF cell line assay)
- condition.notes: human dermal fibroblasts stimulated with IL-17A (50 pM) + TNF-α (25 pM); IL-6 measured by HTRF; pIC50 = -log10[IC50], IC50 molar
Lab book: enter the figure in nM, no units written.

QUERY: Need IC50 of Cc1nonc1C(=O)N[C@H](c1cn2ncc([C@H]3C[C@@](O)(C(F)F)CCN3C(=O)[C@@H]3CCC(F)(F)CO3)nc2n1)C1CCC(F)(F)CC1 (single isomer, unassigned) , thanks.
RESULT: 15.8

QUERY: I would be grateful if you could share the reported IC50 for O=C([C@@H]1CCC(F)(F)CO1)N1CC[C@](O)(C(F)(F)F)C[C@H]1c1cnn2cc([C@@H](NC(=O)C3(F)CC3)C3CCC(F)(F)CC3)nc2n1 (single isomer, unassigned) .
RESULT: 15.8

QUERY: Reported IC50 for Cc1nonc1C(=O)N[C@H](c1cn2ncc([C@H]3C[C@](O)(C(F)(F)F)CCN3C(=O)C34CC(F)(C3)C4)nc2n1)C1CCC(F)(F)CC1 (single isomer, unassigned) : what is it?
RESULT: 501

QUERY: Look up IC50 for this compound: Cc1nonc1C(=O)N[C@H](c1cn2ncc([C@H]3C[C@](C)(O)CCN3C(=O)C34CC(F)(C3)C4)nc2n1)C1CCC(F)(F)CC1 (single isomer, unassigned)
RESULT: 794

QUERY: Request the reported IC50 associated with Cc1nonc1C(=O)N[C@H](c1cn2ncc([C@@H]3COCCN3C(=O)[C@@H]3CCC(F)(F)CO3)nc2n1)[C@H]1CC[C@H](C(F)(F)F)CC1 (single isomer, unassigned) [Example 25]
RESULT: 316

Continuing:
QUERY: Fill blank: measured IC50 of the compound Cc1nonc1C(=O)N[C@H](c1cn2ncc([C@@H]3C[C@](O)(C(F)F)CCN3C(=O)[C@@H]3CCC(F)(F)CO3)nc2n1)C1CCC(F)(F)CC1 (single isomer, unassigned) is ____.
RESULT: 12.6

QUERY: Which IC50 is listed for Cc1nonc1C(=O)N[C@H](c1cn2ncc([C@H]3C[C@](C)(O)CCN3C(=O)[C@@H]3CCC(F)(F)CO3)nc2n1)C1CCC(F)(F)CC1 (single isomer, unassigned) ?
RESULT: 5.01

The measurements presented in this section are drawn from patent US20240294534A1.
